Origin of the recorded values: PubChem BioAssay AID2685

What cell number change was measured for each of the following?
- Method Notes: qHTS Assay for Lipid Storage Modulators in Drosophila S3 Cells;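 for cell number change: cells counted by Cell Tracker Red CMTPX staining in the red channel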
- Stated Conditions: BODIPY lipid droplet fluorescence, 18-24 h, cells fed with added oleic acid; measured here: cell count max response
Screen size: about 320,000 compounds; about 2,100 (0.66%) were called active. Another 53% or so got no clear call; they are omitted. For the sample, actives were picked, then their nearest neighbours and some compounds at random.
Include the unit right after the number.

-- ask Which value of cell number change has been reported for CC(OC(=O)c1nc(Cl)ccc1Cl)C(=O)Nc1ccccc1F (stereo unspecified) in the records?
-- reply -13.3%

-- ask Likewise for `CCOc1cc(C(c2c(C)[nH][nH]c2=O)c2c(C)[nH][nH]c2=O)ccc1OS(=O)(=O)c1ccc(C)cc1` ?
-- reply 16%

-- ask Likewise for Cc1ccc2nc(SCC(=O)N(C)C3CCS(=O)(=O)C3)[nH]c2c1 (stereo unspecified) ?
-- reply 7.53%

-- ask Likewise for `N#Cc1cc2c(nc1Cl)CCC2` ?
-- reply 0.397%

-- ask Likewise for `Cc1cc([N+](=O)[O-])ccc1NCc1ccccc1[N+](=O)[O-]` ?
-- reply 7.15%

-- ask Likewise for CC1(C)CC2CC(C)(CN2C(=O)c2cc(-c3ccc(O)cc3)on2)C1 (stereo unspecified) ?
-- reply 16.1%

-- ask Likewise for `CCOC(=O)/C(C#N)=C/N1CCOCC1` ?
-- reply -2.81%

-- ask Likewise for CC1(C)CC2CC(C)(CN2C(=O)c2cccs2)C1 (stereo unspecified) ?
-- reply -7.87%

-- ask Likewise for COc1ccc2[nH]c3c(=O)n(CCCC(=O)NC4CCC(C)CC4)c(=S)[nH]c3c2c1 (stereo unspecified) ?
-- reply 6.49%

-- ask Likewise for CCn1c(SCC(=O)N(C)C2CCS(=O)(=O)C2)nnc1-c1ccccc1 (stereo unspecified) ?
-- reply -11.5%

-- ask Likewise for `CC[C@H](C)NC(=O)CCCCCn1c(=S)[nH]c2c([nH]c3ccc(OC)cc32)c1=O` ?
-- reply -11.2%

---

- Method Notes: qHTS Assay for Lipid Storage Modulators in Drosophila S3 Cells
- Stated Conditions: BODIPY lipid droplet fluorescence, 18-24 h, cells fed with added oleic acid; series mostly up to 46.1 µM
In all, about 320,000 compounds went through this assay and about 2,100 (0.66%) were called active. Another 53% or so got no clear call; they are omitted. Calls follow the shape of the dose curve; as a rule, active = well fitted inhibition curve with a large enough effect in the signal ratio, with a control signal flat (not every such curve was filed as active); inconclusive = small, poorly fitted or top-dose-only effect, or effect the other way, or a change in a side signal; inactive = flat fitted curve, though single readings scatter; the % refers to the signal ratio. The sample holds actives, similar compounds and a random draw of the others, so the mix is not that of the screen.
Pick one: YES (active), NO (inactive)

-- ask Recorded test call requested for `O=S(=O)(c1ccccc1)N1CCN(C2CCN(Cc3ccccc3)CC2)CC1`
-- reply NO

-- ask Likewise for CC(=O)NC(c1ccc(C(C)C)cc1)c1ccc2cccnc2c1O (stereo not drawn) ?
-- reply NO

-- ask Likewise for `COc1ccc(/C(C)=N/NC(=O)CNC(=O)/C=C\c2ccco2)cc1` ?
-- reply NO

-- ask Likewise for `COc1ccc(N2CCN(C(=O)NC34CC5CC(CC(C5)C3)C4)CC2)cc1` ?
-- reply NO

-- ask Likewise for `CCCNS(=O)(=O)c1cccc(C(=O)OCc2cc(=O)oc3cc(OC)ccc23)c1` ?
-- reply YES

-- ask Likewise for `CCOC(=O)c1ccc(NC(=O)Cn2c(=O)oc3ccccc32)cc1` ?
-- reply NO

-- ask Likewise for `S=C(Nc1ccccn1)Nc1ccccc1Cl` ?
-- reply NO

-- ask Likewise for `O=[N+]([O-])c1ccc2c(c1)c1ccccc1n2CCO` ?
-- reply NO

-- ask Likewise for CCCCC(=O)NC(c1ccc(C(C)C)cc1)c1ccc2cccnc2c1O (stereo not drawn) ?
-- reply YES

-- ask Likewise for `Cc1ccc(S(=O)(=O)N2CCN(C3CCN(Cc4ccccc4)CC3)CC2)cc1` ?
-- reply NO

-- ask Likewise for O=C(NCC1CCCC(CNC(=O)Nc2ccc(Cl)cn2)C1)Nc1ccc(Cl)cn1 (stereo not drawn) ?
-- reply YES

-- ask Likewise for `CCc1c(C)sc(NC(=O)Cc2ccccc2OC)c1C(=O)N1CCOCC1` ?
-- reply NO

-- ask Likewise for `CC1CCN(S(=O)(=O)c2ccc3ccccc3c2)CC1` ?
-- reply YES

-- ask Likewise for `O=S(=O)(c1ccc2ccccc2c1)N1CCCCCC1` ?
-- reply NO

-- ask Likewise for COc1cccc(N2CCN(C(C)C(=O)NC34CC5CC(CC(C5)C3)C4)CC2)c1 (stereo not drawn) ?
-- reply YES

-- ask Likewise for `Cc1nn(S(=O)(=O)N2CCOCC2)c(C)c1Br` ?
-- reply NO

-- ask Likewise for `O=S(=O)(c1ccc2ccccc2c1)N1CCN(C2CCN(Cc3ccccc3)CC2)CC1` ?
-- reply YES

-- ask Likewise for `Oc1ccc(/C=N/NC2=NCCCCC2)cc1` ?
-- reply YES

-- ask Likewise for `CCN(C(=O)CN1CCCCC1)c1c(N)n(Cc2ccccc2)c(=O)[nH]c1=O` ?
-- reply NO

-- ask Likewise for c1ccc(C2CCC(N3CCC(N4CCCCC4)CC3)CC2)cc1 (stereo not drawn) ?
-- reply NO

-- ask Likewise for `CCS(=O)(=O)N1CCN(S(=O)(=O)c2ccc3ccccc3c2)CC1` ?
-- reply NO

-- ask Likewise for `CCOc1ccc(/C=N/NC2=NCCCCC2)cc1` ?
-- reply NO

-- ask Likewise for `O=C(CN1C(=O)NC2(CCCC2)C1=O)OCCOc1ccc(Cl)cc1Cl` ?
-- reply NO
